Each entry below carries its reported activation at 1 µM.
Biological target: PKR wt (Homo sapiens, UniProt P30613)
Sequence (P30613 whole entry): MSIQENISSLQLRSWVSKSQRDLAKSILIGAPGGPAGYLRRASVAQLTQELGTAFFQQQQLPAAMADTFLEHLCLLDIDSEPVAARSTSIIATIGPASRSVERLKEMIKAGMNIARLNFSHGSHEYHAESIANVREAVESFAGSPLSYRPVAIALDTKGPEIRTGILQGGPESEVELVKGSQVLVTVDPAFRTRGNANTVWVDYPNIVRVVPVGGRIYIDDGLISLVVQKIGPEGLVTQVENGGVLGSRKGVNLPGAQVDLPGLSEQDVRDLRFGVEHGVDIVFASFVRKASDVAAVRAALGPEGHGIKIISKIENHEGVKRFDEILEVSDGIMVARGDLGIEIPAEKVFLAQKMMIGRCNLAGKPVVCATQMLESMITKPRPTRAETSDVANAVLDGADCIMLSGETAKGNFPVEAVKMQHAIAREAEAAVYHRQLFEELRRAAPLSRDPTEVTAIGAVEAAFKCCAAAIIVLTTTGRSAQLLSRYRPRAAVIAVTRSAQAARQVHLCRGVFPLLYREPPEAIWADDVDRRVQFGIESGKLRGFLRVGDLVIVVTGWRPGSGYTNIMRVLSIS
Assay: PKR WT Single Point Percent Activation Assay
Assay type: biochemical

{"columns": ["molecule", "activation at 1 µM"],
 "data": [
  ["C[C@@H]1CN(C(=O)c2ccccn2)C[C@H](C)N1C(=O)c1ccc(NS(=O)(=O)c2cccc3cccnc23)cc1", "101 to 500%"],
  ["C[C@@H]1CN(Cc2cc(F)cc(F)c2F)CCN1C(=O)c1ccc(NS(=O)(=O)c2cccc3cccnc23)cc1", "1 to 100%"],
  ["C[C@H]1CN(C(=O)c2ccc(NS(=O)(=O)c3cccc4cccnc34)cc2)CCN1Cc1ccccc1", "101 to 500%"],
  ["C[C@H]1CN(Cc2c(F)ccc(F)c2F)CCN1C(=O)c1ccc(NS(=O)(=O)c2cccc3cccnc23)cc1", "101 to 500%"],
  ["C[C@H]1CN(Cc2ccccc2)CCN1C(=O)c1ccc(NS(=O)(=O)c2cccc3cccnc23)cc1", "101 to 500%"],
  ["CC(C)COC(=O)N1[C@H](C)CN(C(=O)c2ccc(NS(=O)(=O)c3cccc4cccnc34)cc2)C[C@@H]1C", "101 to 500%"],
  ["C[C@@H]1CN(CC2CCC2)CCN1C(=O)c1ccc(NS(=O)(=O)c2cccc3cccnc23)cc1", "101 to 500%"],
  ["COc1ccccc1N1C[C@@H](C)N(C(=O)c2ccc(NS(=O)(=O)c3cccc4cccnc34)cc2)[C@@H](C)C1", "101 to 500%"],
  ["C[C@@H]1CN(C(=O)O[C@@H]2CCOC2)CCN1C(=O)c1ccc(NS(=O)(=O)c2cccc3cccnc23)cc1", "101 to 500%"],
  ["CC(C)OC(=O)N1[C@H](C)CN(C(=O)c2ccc(NS(=O)(=O)c3cccc4cccnc34)cc2)C[C@@H]1C", "101 to 500%"],
  ["CC1CN(CC2CCOC2)CC(C)N1C(=O)c1ccc(NS(=O)(=O)c2cccc3cccnc23)cc1 (stereo not shown)", "1 to 100%"],
  ["C[C@H]1CN(Cc2c(F)cc(F)cc2F)CCN1C(=O)c1ccc(NS(=O)(=O)c2cccc3cccnc23)cc1Cl", "101 to 500%"],
  ["CC(c1cc(F)c(F)cc1F)N1CCN(C(=O)c2ccc(NS(=O)(=O)c3cccc4cccnc34)cc2)[C@H](C)C1 (stereo partly shown)", "101 to 500%"],
  ["C[C@@H]1CN(C(=O)OCCC2CCCC2)CCN1C(=O)c1ccc(NS(=O)(=O)c2cccc3cccnc23)cc1", "1 to 100%"],
  ["CC(c1ccc(F)cc1Cl)N1CCN(C(=O)c2ccc(NS(=O)(=O)c3cccc4cccnc34)cc2)[C@H](C)C1 (stereo partly shown)", "101 to 500%"],
  ["C[C@H]1CN(CC2CCOC2)CCN1C(=O)c1ccc(NS(=O)(=O)c2cccc3cccnc23)cc1Cl (stereo partly shown)", "1 to 100%"]
]}

----------
Target: PKR R510Q (Homo sapiens, UniProt P30613, R510Q)
Sequence (P30613 whole entry R510Q): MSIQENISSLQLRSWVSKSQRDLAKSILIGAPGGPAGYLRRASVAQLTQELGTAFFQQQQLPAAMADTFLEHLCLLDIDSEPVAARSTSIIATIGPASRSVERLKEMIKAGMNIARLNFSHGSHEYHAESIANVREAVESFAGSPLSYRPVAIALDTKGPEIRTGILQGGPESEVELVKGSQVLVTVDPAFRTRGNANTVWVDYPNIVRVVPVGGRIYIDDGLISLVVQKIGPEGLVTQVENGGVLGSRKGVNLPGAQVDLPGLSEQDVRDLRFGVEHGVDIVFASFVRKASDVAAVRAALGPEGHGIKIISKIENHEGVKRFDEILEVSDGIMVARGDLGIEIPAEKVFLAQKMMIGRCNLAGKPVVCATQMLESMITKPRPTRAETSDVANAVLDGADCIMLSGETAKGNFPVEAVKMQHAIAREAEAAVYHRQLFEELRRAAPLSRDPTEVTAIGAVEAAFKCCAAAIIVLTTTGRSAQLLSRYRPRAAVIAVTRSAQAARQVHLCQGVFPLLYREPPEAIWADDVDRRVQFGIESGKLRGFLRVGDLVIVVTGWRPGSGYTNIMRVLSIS
Assay: PKR R510Q Single Point Percent Activation Assay
Assay type: biochemical
Settings: read-out: Act. % 510Q
measure_name: activation at 1 µM

{"columns": ["compound", "measure_name", "result"],
 "data": [
  ["CC1CN(Cc2cc(F)cc(F)c2F)CC(C)N1C(=O)c1ccc(NS(=O)(=O)c2cccc3cccnc23)cc1 (centres unmarked)", "activation at 1 µM", "101 to 500%"],
  ["C[C@@H]1CN(Cc2cc(F)c(F)cc2F)CCN1C(=O)c1ccc(NS(=O)(=O)c2cccc3cccnc23)cc1", "activation at 1 µM", "1 to 100%"],
  ["C[C@H]1CN(C(=O)c2ccccn2)CCN1C(=O)c1ccc(NS(=O)(=O)c2cccc3cccnc23)cc1", "activation at 1 µM", "1 to 100%"],
  ["C[C@H]1CN(Cc2cc(F)c(F)cc2F)CCN1C(=O)c1ccc(NS(=O)(=O)c2cccc3cccnc23)cc1", "activation at 1 µM", "1 to 100%"],
  ["C[C@H]1CN(CC2CCCCC2)CCN1C(=O)c1ccc(NS(=O)(=O)c2cccc3cccnc23)cc1", "activation at 1 µM", "1 to 100%"],
  ["CC(c1cc(F)c(F)cc1F)N1CCN(C(=O)c2ccc(NS(=O)(=O)c3cccc4cccnc34)cc2)[C@H](C)C1 (some centres unmarked)", "activation at 1 µM", "101 to 500%"],
  ["C[C@H]1CN(CC2CC2)CCN1C(=O)c1ccc(NS(=O)(=O)c2cccc3cccnc23)cc1", "activation at 1 µM", "1 to 100%"],
  ["CC[C@H]1CN(C(C)c2cc(F)cc(F)c2)CCN1C(=O)c1ccc(NS(=O)(=O)c2cccc3cccnc23)cc1 (some centres unmarked)", "activation at 1 µM", "1 to 100%"],
  ["CC(c1c(F)cc(F)cc1F)N1CCN(C(=O)c2ccc(NS(=O)(=O)c3cccc4cccnc34)cc2)[C@H](C)C1 (some centres unmarked)", "activation at 1 µM", "1 to 100%"],
  ["O=C(c1ccc(NS(=O)(=O)c2cccc3cccnc23)cc1)N1CC2CCC(C1)N2Cc1cc(F)cc(F)c1", "activation at 1 µM", "101 to 500%"],
  ["C[C@@H]1CN(C(=O)OCCC2CCCC2)CCN1C(=O)c1ccc(NS(=O)(=O)c2cccc3cccnc23)cc1", "activation at 1 µM", "1 to 100%"],
  ["CC(C)OC(=O)N1CCN(C(=O)c2ccc(NS(=O)(=O)c3cccc4cccnc34)cc2)c2ccccc21", "activation at 1 µM", "1 to 100%"],
  ["O=C(c1ccc(NS(=O)(=O)c2cccc3cccnc23)cc1)N1CCn2c(nnc2-c2cc(F)cc(F)c2)C1", "activation at 1 µM", "101 to 500%"],
  ["CC[C@H]1CN(Cc2ccc(F)cc2)CCN1C(=O)c1ccc(NS(=O)(=O)c2cccc3cccnc23)cc1", "activation at 1 µM", "1 to 100%"],
  ["CCOC(=O)N1[C@H](C)CN(C(=O)c2ccc(NS(=O)(=O)c3cccc4cccnc34)cc2)C[C@@H]1C", "activation at 1 µM", "101 to 500%"],
  ["C[C@@H]1CN(CC2CCCCO2)CCN1C(=O)c1ccc(NS(=O)(=O)c2cccc3cccnc23)cc1 (some centres unmarked)", "activation at 1 µM", "1 to 100%"],
  ["C[C@H]1CN(Cc2cc(F)cc(F)c2)CCN1C(=O)c1ccc(NS(=O)(=O)c2cccc3cccnc23)cc1", "activation at 1 µM", "101 to 500%"]
]}
